System: Leishmania tarentolae promastigotes (LtP)
protocol description: Resazurin viability assay for LtP
Type: cell-based
experimental context: Leishmania tarentolae, 48 h, read-out: LtP IC50
readout type: IC50 (nM)
Output spec: scalar in nM, unitless text.

What does the record list as IC50 for CC(C)(C)c1ccc2c(-c3cccnc3)c3ccccc3c(-c3cccnc3)c2c1 ?
540

Entry CC(C)(C)c1ccc2c(-c3ccccn3)c3ccccc3c(-c3ccccn3)c2c1 has what IC50?
1860

====

System: Leishmania tarentolae promastigotes (LtP)
protocol description: Resazurin viability assay for LtP
Format: cell-based
experimental context: Leishmania tarentolae; resazurin viability, endpoint 48 h, 2 × 10^6 LtP/mL, mean ± SD of 4–8 experiments; read-out: LtP IC50
I'd be grateful if you could share measured pIC50 for these entries.
Quick note: pIC50 values are minus log10 of concentrations in mol/L.

Quick one: pIC50 for c1cncc(-c2c3ccccc3c(-c3cccnc3)c3ccccc23)c1 ?
4.28

What pIC50 value was documented for this molecule, c1ccc(-c2c3ccccc3c(-c3ccccc3)c3ccccc23)cc1 ?
3.71

====

Kindly supply the reported pIC50 values for the records listed here.
Test system: Leishmania tarentolae promastigotes (LtP)
protocol description: Resazurin viability assay for LtP
Assay type: cell-based
experimental context: Leishmania tarentolae; resazurin viability, endpoint 48 h, 2 × 10^6 LtP/mL, mean ± SD of 4–8 experiments; read-out: LtP IC50
The quantity pIC50 is defined as the negative base-10 logarithm of the molar concentration.

// lookup pIC50 for CC(C)(C)c1ccc2c(c1)C1(c3cccnc3)OOC2(c2cccnc2)c2ccccc21 (stereo not shown)
6.15

So what does the record say about pIC50 for COc1ccccc1C12OOC(c3ccccc3OC)(c3ccccc31)c1ccccc12 ?
4.39

Reported pIC50 for c1ccc(-c2c3ccccc3c(-c3ccccn3)c3ccccc23)nc1 : what is it?
4.46

Please look up its pIC50: CC(=O)OCC1OC(Oc2c3ccccc3cc3ccccc23)C(OC(C)=O)C(OC(C)=O)C1OC(C)=O (stereo not shown)
3.80

Would you mind telling me what pIC50 value was observed for N=C(N)c1ccc(OCCCCCOc2ccc(C(=N)N)cc2)cc1 [Pen, pentamidine, reference compound] ?
6.28

====

System: Leishmania tarentolae promastigotes (LtP)
protocol description: Resazurin viability assay for LtP
Assay type: cell-based
experimental context: Leishmania tarentolae; resazurin viability, endpoint 48 h, 2 × 10^6 LtP/mL, mean ± SD of 4–8 experiments; read-out: LtP IC50
readout type: IC50 (µM)
Note: unit µM is implicit; provide only the numeric part.

Reported IC50 for C[n+]1ccc(C23OOC(c4cc[n+](C)cc4)(c4ccccc42)c2ccccc23)cc1 [Compound 1062MeAcEP] : what is it?
62

What does the record list as IC50 for CC(=O)OCC1OC(OC23OOC(c4ccccc42)c2ccccc23)C(OC(C)=O)C(OC(C)=O)C1OC(C)=O (stereo not drawn) [MonoGluAcEP] ?
32.3

# get_value(readout='IC50', item= c1ccc(C23OOC(c4ccccn4)(c4ccccc42)c2ccccc23)nc1 [oPyAcEP] )
1.84

Give the measured IC50 of c1ccc2c(c1)C1OOC2c2ccccc21 [AcEP] .
19.7

What value of IC50 has been recorded for this entry: COc1ccccc1-c1c2ccccc2c(-c2ccccc2OC)c2ccccc12 [oOMeAc]
73.3

Tell me the measured IC50 of c1ccc(C23OOC(c4ccccc4)(c4ccccc42)c2ccccc23)cc1 [DPAcEP] , please.
9.67
